measurement_notes: recombinant barcode read abundance after kanamycin selection (control-corrected) (log10(CPM+1)); higher = more efficient recombination; sequences stand for … in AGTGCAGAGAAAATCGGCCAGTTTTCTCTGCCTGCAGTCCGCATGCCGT…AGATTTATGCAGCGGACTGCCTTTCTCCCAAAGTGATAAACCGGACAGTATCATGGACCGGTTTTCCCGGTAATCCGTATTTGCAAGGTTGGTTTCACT; site = the 11-nt target;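 further: IS621 recombinase and bridge RNA in Escherichia coli cells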
Parameter recombinant barcode read abundance (log10): see the listing below.
result_type: recombinant barcode read abundance (log10)

{"sequence_content": "ATACCATCTTGGGTTCTAACCTGTTGCCT (site ATGCCATCTAG)", "reported_result": 0.855}
{"sequence_content": "GAAGCATCTTGGGTTCTAACCTGTTGCCT (site GATGCCTCTAG)", "reported_result": 0.123}
{"sequence_content": "TATCCTCCTTGGGTTCTAACCTGTTGCCG (site TATCCTCCTCG)", "reported_result": 0.318}
{"sequence_content": "GGTTGCACTTGGGTTCTAACCTGTTGCCT (site AGTTGCTCTAG)", "reported_result": 0.189}
{"sequence_content": "GGCTCTACTTGGGTTCTAACCTGTTGCGG (site GGCTCTACTCC)", "reported_result": 0.326}
{"sequence_content": "CTGCTCCCTTGGGTTCTAACCTGTTGCGG (site CTGGTCCCTCC)", "reported_result": 0.306}
{"sequence_content": "AGCCACACTTGGGTTCTAACCTGTTGCCT (site AGCCACTCTAG)", "reported_result": 0.456}

FYI, the data here is from the supplement of paper PMC11208160.
